Quick list: IC50 per entry.
Molecular target: Tyrosine-protein kinase JAK3 (Homo sapiens)
Sequence (P52333 whole entry): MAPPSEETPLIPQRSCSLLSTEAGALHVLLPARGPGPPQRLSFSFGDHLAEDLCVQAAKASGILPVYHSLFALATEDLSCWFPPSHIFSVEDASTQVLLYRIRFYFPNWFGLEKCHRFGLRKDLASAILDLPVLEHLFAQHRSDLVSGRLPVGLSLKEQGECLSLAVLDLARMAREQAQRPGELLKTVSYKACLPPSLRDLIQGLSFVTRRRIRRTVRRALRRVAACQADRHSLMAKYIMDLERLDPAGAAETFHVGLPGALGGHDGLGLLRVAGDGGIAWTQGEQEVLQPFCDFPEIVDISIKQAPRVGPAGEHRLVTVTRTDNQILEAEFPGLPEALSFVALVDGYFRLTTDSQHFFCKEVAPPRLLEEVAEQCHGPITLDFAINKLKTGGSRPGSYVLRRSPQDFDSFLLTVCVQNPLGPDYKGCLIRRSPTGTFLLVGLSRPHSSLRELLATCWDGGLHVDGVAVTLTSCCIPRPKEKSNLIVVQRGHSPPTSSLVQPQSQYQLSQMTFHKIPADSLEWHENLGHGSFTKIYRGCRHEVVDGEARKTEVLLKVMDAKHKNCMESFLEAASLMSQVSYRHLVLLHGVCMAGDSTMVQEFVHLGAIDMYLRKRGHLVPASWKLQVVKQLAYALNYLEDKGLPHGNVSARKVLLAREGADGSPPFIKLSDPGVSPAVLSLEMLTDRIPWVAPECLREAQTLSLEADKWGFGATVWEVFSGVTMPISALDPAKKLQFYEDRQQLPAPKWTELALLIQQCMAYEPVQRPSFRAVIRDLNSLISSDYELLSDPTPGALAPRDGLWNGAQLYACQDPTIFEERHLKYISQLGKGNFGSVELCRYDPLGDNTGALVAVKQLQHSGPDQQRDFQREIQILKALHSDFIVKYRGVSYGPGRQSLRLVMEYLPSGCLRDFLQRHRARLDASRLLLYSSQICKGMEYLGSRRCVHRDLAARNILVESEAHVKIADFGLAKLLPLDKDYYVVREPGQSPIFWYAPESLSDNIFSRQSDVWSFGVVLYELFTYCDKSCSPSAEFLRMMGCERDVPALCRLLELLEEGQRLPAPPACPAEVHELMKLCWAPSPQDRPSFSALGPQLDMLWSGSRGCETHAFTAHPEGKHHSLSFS
valueType: IC50 (µM)

In [3]: df
Out[3]:
                                   molecule  valuequalifier  numericreadout
0  COc1cc(Nc2nc(N[C@@H](C)c3ncc(F)cn3)ncc2Cl)n[nH]1               >              30
1  Cc1cc(Nc2nc(N[C@@H](C)c3ncc(F)cn3)ncc2Br)n[nH]1               =            4.59
2  Cc1cc(Nc2nc(N[C@@H](C)c3ncc(F)cn3)ncc2F)n[nH]1               =            5.25
3  Cc1cc(Nc2nc(N[C@@H](C)c3ncc(F)cn3)nc(N3CCOCC3)c2Cl)n[nH]1               =            11.8
4  COc1cc(Nc2nc(N[C@@H](C)c3ncc(F)cn3)nc(N3CCOCC3)c2Cl)n[nH]1               =            2.96
5  Cc1cc(Nc2nc(O[C@H](C)c3ncc(F)cn3)ncc2Cl)n[nH]1               >              30
6  C[C@H](Nc1ncc(Cl)c(Nc2cc(N(C)C)[nH]n2)n1)c1ncc(F)cn1               >              30
7  C[C@H](Nc1ncc(F)c(Nc2cc(N(C)C)[nH]n2)n1)c1ncc(F)cn1               >              30
8  Cc1cc(Nc2nc(N[C@@H](C)c3ncc(F)cn3)ncc2Cl)n[nH]1 [AZD-1480]               =            1.36

---

Test: Observed clearance in CD1 mouse at 3 mg/kg, iv
Format: ADME, organism-based
Parameters: dose 3 mg/kg, route intravenous
Conditions: in vivo
valueType: clearance (mL/min/kg)

>>> df
                             chemicalstring  numericreadout
0  Cc1cc(Nc2nc(N[C@@H](C)c3ncc(F)cn3)ncc2Cl)n[nH]1            13.5

---

Assay: AUC (0 to 12 hrs) in Beagle dog at 10 mg/kg, po
Assay type: ADME, organism-based, Canis lupus familiaris
Set-up: time < 12 hr, dose 10 mg/kg, route oral
Settings: plasma
valueType: AUC(0-t) at 12 h (µM·h)

>>> print(df.to_string())
                                   compound         valuetype  numericreadout
0  Cc1cc(Nc2nc(N[C@@H](C)c3ncc(F)cn3)ncc2Cl)n[nH]1 [AZD-1480]  AUC(0-t) at 12 h             350

---

Listed next: entries and their corresponding pIC50.
Target: Tyrosine-protein kinase JAK2 (Homo sapiens, UniProt O60674)
Sequence (O60674 whole entry): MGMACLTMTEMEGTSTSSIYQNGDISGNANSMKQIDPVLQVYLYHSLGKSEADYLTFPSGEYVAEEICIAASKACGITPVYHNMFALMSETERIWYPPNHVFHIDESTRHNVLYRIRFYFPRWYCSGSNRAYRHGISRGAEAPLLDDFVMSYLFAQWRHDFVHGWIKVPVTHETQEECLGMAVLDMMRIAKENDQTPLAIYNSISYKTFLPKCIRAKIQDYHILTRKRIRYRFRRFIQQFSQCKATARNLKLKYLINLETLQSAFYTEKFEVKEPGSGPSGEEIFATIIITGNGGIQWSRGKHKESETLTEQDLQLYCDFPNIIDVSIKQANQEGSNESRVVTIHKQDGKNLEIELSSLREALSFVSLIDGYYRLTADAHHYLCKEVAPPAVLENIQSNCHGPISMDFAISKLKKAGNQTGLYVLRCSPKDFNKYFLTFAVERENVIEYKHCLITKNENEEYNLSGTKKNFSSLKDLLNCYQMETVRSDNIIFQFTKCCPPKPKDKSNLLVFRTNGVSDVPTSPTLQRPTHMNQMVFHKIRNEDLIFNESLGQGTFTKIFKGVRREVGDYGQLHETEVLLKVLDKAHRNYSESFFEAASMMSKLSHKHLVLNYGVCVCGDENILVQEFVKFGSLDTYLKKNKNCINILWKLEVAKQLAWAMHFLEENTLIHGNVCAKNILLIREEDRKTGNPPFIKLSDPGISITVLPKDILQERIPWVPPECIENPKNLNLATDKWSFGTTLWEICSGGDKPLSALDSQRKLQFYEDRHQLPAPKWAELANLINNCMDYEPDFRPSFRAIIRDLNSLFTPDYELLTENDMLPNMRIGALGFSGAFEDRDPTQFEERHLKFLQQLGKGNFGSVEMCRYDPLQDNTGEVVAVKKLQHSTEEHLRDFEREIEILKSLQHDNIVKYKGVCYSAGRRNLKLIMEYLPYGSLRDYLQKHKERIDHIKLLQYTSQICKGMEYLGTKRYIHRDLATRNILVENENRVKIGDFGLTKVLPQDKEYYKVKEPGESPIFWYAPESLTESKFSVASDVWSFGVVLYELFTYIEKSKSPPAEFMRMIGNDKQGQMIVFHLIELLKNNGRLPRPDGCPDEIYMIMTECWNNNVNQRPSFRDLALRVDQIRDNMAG
Experiment: Inhibition of JAK2 using 5 mM of ATP
pIC50: −log10 of the molar value.
valueType: pIC50

In [3]: df
Out[3]:
                             chemicalstring                              targetsystem  valuequalifier  numericreadout
0  Cc1cc(Nc2nc(N[C@@H](C)c3ncc(F)cn3)nc(N3CCOCC3)c2F)n[nH]1  Tyrosine-protein kinase JAK2 (Homo sapiens, UniProt O60674)               >            8.52
1  Cc1cc(Nc2nc(N[C@@H](C)c3ncc(F)cn3)ncc2Br)n[nH]1  Tyrosine-protein kinase JAK2 (Homo sapiens, UniProt O60674)               =            8.00
2  Cc1cc(Nc2cc(N3CCOCC3)nc(N[C@@H](C)c3ncc(F)cn3)n2)[nH]n1  Tyrosine-protein kinase JAK2 (Homo sapiens, UniProt O60674)               >            8.52
3  COc1cc(Nc2nc(N[C@@H](C)c3ncc(F)cn3)nc(N3CCOCC3)c2Cl)n[nH]1  Tyrosine-protein kinase JAK2 (Homo sapiens, UniProt O60674)               =            7.05
4  COc1cc(Nc2nc(N[C@@H](C)c3ncc(F)cn3)ncc2Cl)n[nH]1  Tyrosine-protein kinase JAK2 (Homo sapiens, UniProt O60674)               =            6.97
5  C[C@H](Nc1ncc(F)c(Nc2cc(N(C)C)[nH]n2)n1)c1ncc(F)cn1  Tyrosine-protein kinase JAK2 (Homo sapiens, UniProt O60674)               =            6.09
6  Cc1cc(Nc2nc(N[C@@H](C)c3ncc(F)cn3)ncc2Cl)n[nH]1  Tyrosine-protein kinase JAK2 (Homo sapiens, UniProt O60674)               =            7.24
7  COc1cc(Nc2nc(N[C@@H](C)c3ncc(F)cn3)ncc2Br)n[nH]1  Tyrosine-protein kinase JAK2 (Homo sapiens, UniProt O60674)               =            6.97
8  Cc1cc(Nc2nc(N[C@@H](C)c3ncc(F)cn3)ncc2C)n[nH]1  Tyrosine-protein kinase JAK2 (Homo sapiens, UniProt O60674)               =            8.40
9  C[C@H](Nc1ncc(Cl)c(Nc2cc(N(C)C)[nH]n2)n1)c1ncc(F)cn1  Tyrosine-protein kinase JAK2 (Homo sapiens, UniProt O60674)               =            6.31

---

Experiment: Half life in CD1 mouse at 3 mg/kg, iv
Type: ADME, organism-based
Parameters: dose 3 mg/kg, route intravenous
Conditions: in vivo
valueType: half-life (min)

>>> df
                             chemicalstring  valuetype  resultunit  numericreadout
0  Cc1cc(Nc2nc(N[C@@H](C)c3ncc(F)cn3)ncc2Cl)n[nH]1  half-life         min              90

---

Test: Oral bioavailability in Han Wistar rat at 10 mg/kg
Assay type: ADME, organism-based
Details: in vivo
Kindly return Criterion met if reported bioavailability is no lower than 50%; return Criterion not met if it is lower.

>>> df
                                   molecule              class
0  Cc1cc(Nc2nc(N[C@@H](C)c3ncc(F)cn3)ncc2F)n[nH]1      Criterion met
1  Cc1cc(Nc2cc(N3CCOCC3)nc(N[C@@H](C)c3ncc(F)cn3)n2)[nH]n1      Criterion met
2  Cc1cc(Nc2nc(N[C@@H](C)c3ncc(F)cn3)ncc2Cl)n[nH]1 [AZD-1480]  Criterion not met
3  Cc1cc(Nc2nc(N[C@@H](C)c3ncc(F)cn3)nc(N3CCOCC3)c2F)n[nH]1  Criterion not met
4  Cc1cc(Nc2nc(N[C@@H](C)c3ncc(F)cn3)ncc2C)n[nH]1      Criterion met
5  Cc1cc(Nc2nc(N[C@@H](C)c3ncc(F)cn3)nc(N3CCOCC3)c2Cl)n[nH]1  Criterion not met

Every entry's value here was drawn from ChEMBL document CHEMBL1649076.
